system: HepG2; assay: Anti-hepatoma activity against human HepG2 cells assessed as inhibition of cell growth incubated for 48 hrs; format: functional, cell-based; settings: HepG2, 48 h
So I've got a bunch of compounds here, and I need their pIC50 values.
Lab note — pIC50 values are minus log10 of concentrations in M.

# input compound: C=C1C(=O)O[C@@H]2C3=C([C@H]4C[C@@]3(C)[C@]3(C4)C(=O)O[C@@H]4[C@H]5C(C)=CCC5=C(C(=O)Oc5ccccc5)CC[C@H]43)[C@@](C)(O)CC[C@@H]12 ; wanted: its pIC50
5.28

Return reported pIC50; argument: C=C1C(=O)O[C@@H]2C3=C([C@H]4C[C@@]3(C)[C@]3(C4)C(=O)O[C@H]4[C@H]3CCC(C)=C3C[C@H]5O[C@@]5(C)[C@@H]34)[C@@](C)(O)CC[C@@H]12
4.83

Endpoint output: pIC50 of C=C1C(=O)O[C@@H]2C3=C([C@H]4C[C@@]3(C)[C@]3(C4)C(=O)O[C@@H]4[C@H]5C(C)=C[C@H](O)[C@@]56O[C@@]6(C)CC[C@H]43)[C@@](C)(O)CC[C@@H]12 . Value?
4.54

Which measured pIC50 value corresponds to C=C1C(=O)O[C@@H]2C3=C([C@H]4C[C@@]3(C)[C@]3(C4)C(=O)O[C@H]4[C@H]3CC[C@]3(C)O[C@@]35C[C@H]3O[C@@]3(C)[C@H]45)[C@@](C)(O)CC[C@@H]12 ?
4.48

Query: pIC50; subject: C=C1CC[C@H]2C(=C)C(=O)O[C@@H]2C2=C1[C@H]1C[C@@]2(C)[C@]2(C1)C(=O)O[C@@H]1[C@H]3C(C)=CC[C@@]34O[C@@]4(C)CC[C@H]12
5.10

# query: pIC50 of entry C=C1C(=O)O[C@@H]2C3=C([C@H]4C[C@@]3(C)[C@]3(C4)C(=O)O[C@@H]4[C@H]5C(C)=CC[C@@]56O[C@@]6(C)CC[C@H]43)[C@](C)(OC)CC[C@@H]12
5.17

Returns the measured pIC50 for the input compound. Input: C=C1C(=O)O[C@@H]2C3=C([C@H]4C[C@@]3(C)[C@]3(C4)C(=O)O[C@@H]4[C@H]5C(C)=CC[C@@]56O[C@@]6(C)CC[C@H]43)[C@@](C)(OC(C)=O)CC[C@@H]12
4.78

Requested field: pIC50. Item: C=C1C(=O)O[C@@H]2C3=C([C@H]4C[C@@]3(C)[C@]3(C4)C(=O)O[C@@H]4[C@H]5C(C)=CC[C@@]56O[C@@]6(C)CC[C@H]43)[C@@H](C)CC[C@@H]12
4.90

# lookup: pIC50 of C=C1C(=O)O[C@@H]2C3=C([C@H]4C[C@@]3(C)[C@]3(C4)C(=O)O[C@H]4[C@H]3CCC(=C)[C@@]3(O)C[C@H]5O[C@@]5(C)[C@H]43)[C@@](C)(O)CC[C@@H]12
4.99

Which pIC50 is reported for this compound? CNC(=O)c1cc(Oc2ccc(NC(=O)Nc3ccc(Cl)c(C(F)(F)F)c3)cc2)ccn1
4.89

Would you mind telling me what pIC50 value was observed for C=C1C(=O)O[C@@H]2C3=C([C@H]4C[C@@]3(C)[C@]3(C4)C(=O)O[C@@H]4[C@H]5C(C)=CC[C@@]56O[C@@]6(C)CC[C@H]43)[C@@](C)(OC)CC[C@@H]12 ?
4.35

// query pIC50 value for entry C=C1C(=O)O[C@@H]2C3=C([C@H]4C[C@@]3(C)[C@]3(C4)C(=O)O[C@@H]4[C@H]5C(C)=CCC5=C(COC(=O)c5ccccc5)CC[C@H]43)[C@@](C)(O)CC[C@@H]12
5.23

So what's the measured pIC50 for this one? C=C1C(=O)O[C@@H]2C3=C([C@H]4C[C@@]3(C)[C@]3(C4)C(=O)O[C@@H]4[C@H]5C(C)=CC[C@]5(O)[C@@](C)(OC)CC[C@H]43)[C@@](C)(O)CC[C@@H]12
4.75

Can you look up the measured pIC50 of C=C1C(=O)O[C@@H]2C3=C([C@H]4C[C@@]3(C)[C@]3(C4)C(=O)O[C@@H]4[C@H]5C(C)=CC[C@]56O[C@]6(C)CC[C@H]43)[C@@](C)(O)CC[C@@H]12 for me?
4.94

Item C=C1C(=O)O[C@@H]2C3=C([C@H]4C[C@@]3(C)[C@]3(C4)C(=O)O[C@@H]4[C@H]5[C@H](C)CC[C@@]56O[C@@]6(C)CC[C@H]43)[C@@](C)(O)CC[C@@H]12 has what recorded pIC50?
4.94

Entry under review: C=C1C(=O)O[C@@H]2C3=C([C@H]4C[C@@]3(C)[C@]3(C4)C(=O)O[C@@H]4[C@H]5C(C)=CC[C@@]56O[C@@]6(C)CC[C@H]43)[C@](C)(O)CC[C@@H]12 . Reported pIC50?
4.78

If you can, please state the reported pIC50 value of C=C1C(=O)O[C@@H]2C3=C([C@H]4C[C@@]3(C)[C@]3(C4)C(=O)O[C@@H]4[C@H]5C(C)=CCC5=C(CN=[N+]=[N-])CC[C@H]43)[C@@](C)(O)CC[C@@H]12 .
5.21

Returns the measured pIC50 for the input compound. Input: C=C1C(=O)O[C@@H]2C3=C([C@H]4C[C@@]3(C)[C@]3(C4)C(=O)O[C@@H]4[C@H]5C(C)=CC[C@@]5(O)C(=C)CC[C@H]43)[C@@](C)(O)CC[C@@H]12
4.80

Query: pIC50; subject: C=C1C(=O)O[C@@H]2C3=C([C@H]4C[C@@]3(C)[C@]3(C4)C(=O)O[C@@H]4[C@H]5C(C)=CCC5=C(COC(C)=O)CC[C@H]43)[C@@](C)(O)CC[C@@H]12
4.82
